Where these numbers come from: paper PMC2715226

# TARGET OF ASSAY: T1, Ets-1 p42 (human, UniProt P14921-2 1-354)
# T1 sequence: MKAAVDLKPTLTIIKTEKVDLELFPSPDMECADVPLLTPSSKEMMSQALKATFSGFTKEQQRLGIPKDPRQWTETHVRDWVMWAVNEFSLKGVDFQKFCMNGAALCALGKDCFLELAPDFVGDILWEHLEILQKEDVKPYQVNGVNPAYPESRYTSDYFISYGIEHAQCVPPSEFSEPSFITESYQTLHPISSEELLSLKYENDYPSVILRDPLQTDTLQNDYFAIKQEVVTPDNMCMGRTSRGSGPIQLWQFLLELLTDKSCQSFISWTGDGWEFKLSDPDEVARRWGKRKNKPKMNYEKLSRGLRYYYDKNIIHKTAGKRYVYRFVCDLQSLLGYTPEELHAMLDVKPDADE
# ASSAY METHOD TEXT: not stated
MEASURED PARAMETER: Kd

Example cases with answers are listed next.
M2 (dsDNA) DNA 1: ACCAAGACAGGAAGCACTTTTTGGAGATTA DNA 2: TAATCTCCAAAAAGTGCTTCCTGTCTTGGT = ~20 nM
WT (dsDNA) DNA 1: ACCAAGACAGGAAGCACTTCCTGGAGATTA DNA 2: TAATCTCCAGGAAGTGCTTCCTGTCTTGGT = ~20 nM

Consider now this further binder.
Reported Kd ( M1 (dsDNA) DNA 1: ACCAAGACAAAAAGCACTTCCTGGAGATTA DNA 2: TAATCTCCAGGAAGTGCTTTTTGTCTTGGT ) = ~20 nM
